The origin of these recorded values is patent US9708383.

biological target: T1, human GLP-1 receptor (human, UniProt P43220 24-463); test: SPA, 2.0% vs 0.005% HSA
T1 construct: whole, on cells; Used as purified membranes of the transfected hamster cells, not whole cells; also called hGLP-1
*1 amine or outer side, *2 acyl side, *3 side chain or, on linkers, in order; H or OH if unused. Where no end group is shown, it is not given here. Side-chain parts run from the residue outwards. [ ]: non-standard residue; d: D form. The star is where a group is joined. d(γGlu) = O=C(O)[C@@H](CCC(=O)[*:2])N[*:1]; γGlu = O=C(O)[C@H](CCC(=O)[*:2])N[*:1]; C12 diacid = O=C(O)CCCCCCCCCCC(=O)*; 13‑carboxytridecanoyl = C14 diacid; AEEA = NCCOCCOCC(=O)O; Aib = CC(C)(N)C(=O)O
I'd appreciate it if you could supply ratio IC50 high HSA/IC50 low HSA values for the items below.

binder="H[Aib]EGTFTSDVSK([AEEA-AEEA-d(γGlu)-γGlu-13‑carboxytridecanoyl])YLEEQAAK([AEEA-AEEA-d(γGlu)-γGlu-13‑carboxytridecanoyl])EFIAWLVQGRG [GLP-1 derivative of Example 105: [Aib8,Lys18,Glu22,Gln34]-GLP-1-(7-37)-peptide]" reported="> 1"

Query :: What value of ratio IC50 high HSA/IC50 low HSA has been recorded for this entry: HAEGTFTSDVSK([AEEA-AEEA-γGlu-C12 diacid])YLEEQAVREFIAHLVK([AEEA-AEEA-γGlu-C12 diacid]) [GLP-1 derivative of Example 66: [Lys18,Glu22,Val25,Arg26,His31]-GLP-1-(7-34)-peptide]
Result :: > 1
